Target: UniProt:P21462
Sequence (P21462 whole entry): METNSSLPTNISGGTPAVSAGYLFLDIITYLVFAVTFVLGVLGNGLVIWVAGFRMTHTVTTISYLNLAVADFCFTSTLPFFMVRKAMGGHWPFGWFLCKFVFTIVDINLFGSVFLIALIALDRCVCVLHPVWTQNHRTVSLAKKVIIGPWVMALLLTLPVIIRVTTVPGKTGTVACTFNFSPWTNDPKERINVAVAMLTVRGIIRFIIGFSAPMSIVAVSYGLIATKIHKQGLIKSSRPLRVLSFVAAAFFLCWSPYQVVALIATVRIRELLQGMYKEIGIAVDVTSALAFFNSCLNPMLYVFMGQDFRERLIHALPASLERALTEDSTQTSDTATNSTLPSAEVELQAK
Assay: FPR1 cyclic adenosine monophosphate (cAMP) assay
Conditions: CHO cells overexpressing human FPR1; forskolin 10 µM; inhibition of cAMP production; read-out: hFPR1 cAMP EC50
metric_name: pEC50
Keep it numeric: pEC50 is minus log10 of the concentration in mol/L.

INSERT INTO results (compound, test_result) VALUES
  ('COc1ccc([C@@H]2CN(c3c(C)ccn(CCO)c3=O)C(=O)[C@H]2NC(=O)c2ccc(OC(F)(F)F)cc2)c(F)c1 [Example 636]', 8.49),
  ('COc1cc(F)c([C@@H]2CN(c3nccc(NCC(C)(C)O)c3C(F)(F)F)C(=O)[C@H]2NC(=O)c2ccc(OC(F)F)cc2)c(F)c1', 6.19),
  ('COc1cc(F)c([C@@H]2CN(c3cccn(CC4CC4)c3=O)C(=O)[C@H]2NC(=O)c2ccc(OC(F)(F)F)cc2)c(F)c1', 7.85),
  ('COCCn1cncc(N2C[C@@H](c3c(F)cc(OC)cc3F)[C@H](NC(=O)c3ccc(OC(F)F)cc3)C2=O)c1=O', 5.85),
  ('COc1ccc([C@@H]2CN(c3cccn(CC(C)O)c3=O)C(=O)[C@H]2NC(=O)c2ccc(OC(F)(F)F)cc2)cc1 (stereo partly shown)', 7.96),
  ('COc1ccc([C@@H]2CN(c3c(C)ccn(C4CCOC4)c3=O)C(=O)[C@H]2NC(=O)c2ccc(OC(F)(F)F)cc2)cc1 (stereo partly shown) [Example 132]', 9.10);

query: Please look at this compound and report its pEC50: `COc1ccc([C@@H]2CN(c3c(C)ccn(C4CCC4)c3=O)C(=O)[C@H]2NC(=O)c2ccc(OC(F)(F)F)cc2)cc1`
result: 9.55

query: Please look at this compound and report its pEC50: `COc1cc(F)c([C@@H]2CN(c3nc(Cl)ccc3C#N)C(=O)[C@H]2NC(=O)c2ccc(OC(F)F)cc2)c(F)c1`
result: 6.19

query: Please look at this compound and report its pEC50: `COc1cc(F)c([C@@H]2CN(c3cccn(CCN4CCS(=O)(=O)CC4)c3=O)C(=O)[C@H]2NC(=O)c2ccc(OC(F)F)cc2)c(F)c1`
result: 6.60

query: Please look at this compound and report its pEC50: COc1ccc([C@@H]2CN(c3cccn(CC(O)C(F)(F)F)c3=O)C(=O)[C@H]2NC(=O)c2ccc(OC(F)F)cc2)cc1 (stereo partly shown) [Example 371]
result: 8.10

query: Please look at this compound and report its pEC50: COCC(C(=O)N(C)C)n1cccc(N2C[C@@H](c3ccc(Cl)cc3)[C@H](NC(=O)c3ccc(OC(F)F)cc3)C2=O)c1=O (stereo partly shown)
result: 8.59

query: Please look at this compound and report its pEC50: `COc1cc(F)c([C@@H]2CN(c3nccc(N4CCOCC4)c3C(F)(F)F)C(=O)[C@H]2NC(=O)c2ccc(Cl)cc2)c(F)c1`
result: 7.29

query: Please look at this compound and report its pEC50: `COc1cc(F)c([C@@H]2CN(c3ccc(CO)[nH]c3=O)C(=O)[C@H]2NC(=O)c2ccc(OC(F)F)cc2)c(F)c1`
result: 6.24

query: Please look at this compound and report its pEC50: COCC(CO)n1nccc(N2C[C@@H](c3c(F)cc(OC)cc3F)[C@H](NC(=O)c3ccc(OC(F)F)cc3)C2=O)c1=O (stereo partly shown)
result: 7.85

query: Please look at this compound and report its pEC50: `COc1cc(F)c([C@H]2[C@H](NC(=O)c3ccc(OC(F)F)cc3)C(=O)N(c3ncccc3OC(C)C)[C@H]2C)c(F)c1`
result: 5.64

query: Please look at this compound and report its pEC50: `COc1cc(F)c([C@@H]2CN(c3c(C)ccn([C@H]4COC[C@@H]4O)c3=O)C(=O)[C@H]2NC(=O)c2ccc(OC(F)F)cc2)c(F)c1`
result: 8.03

query: Please look at this compound and report its pEC50: `COc1ccc([C@@H]2CN(c3cccn(CCO)c3=O)C(=O)[C@H]2NC(=O)c2ccc(OC(F)(F)F)cc2)c(F)c1`
result: 7.80

query: Please look at this compound and report its pEC50: COCC(CO)n1cccc(N2C[C@@H](c3ccc(Cl)cc3)[C@H](NC(=O)c3ccc(OC(F)(F)F)cc3)C2=O)c1=O (stereo partly shown)
result: 8.48

query: Please look at this compound and report its pEC50: `COc1cc(F)c([C@@H]2CN(c3nc(C(F)(F)F)ccc3N3CC[C@H](O)C3)C(=O)[C@H]2NC(=O)c2ccc(Cl)cc2)c(F)c1`
result: 7.00

query: Please look at this compound and report its pEC50: CNC(=O)C(C)Nc1ccnc(N2C[C@@H](c3c(F)cc(OC)cc3F)[C@H](NC(=O)c3ccc(Cl)cc3)C2=O)c1C(F)(F)F (stereo partly shown) [Example 290]
result: 5.74

query: Please look at this compound and report its pEC50: `COc1cc(F)c([C@@H]2CN(c3c(C)ccn(CC4CC4)c3=O)C(=O)[C@H]2NC(=O)c2ccc(OC(F)F)cc2)c(F)c1`
result: 8.89

query: Please look at this compound and report its pEC50: COCCn1ccc(C)c(N2C[C@@H](c3c(F)cc(OC)cc3F)[C@H](NC(=O)c3ccc(Cl)cc3)C2=O)c1=O [Example 633]
result: 8.37
